- assayDetails: Inhibition of Trypanosoma cruzi squalene synthase
outcomeMeasure: pKi
One number for each entry, as −log10 of the molar value.

Need pKi, item CC(C)=CCC/C(C)=C/CNCCNC1C2CC3CC(C2)CC1C3 (stereo unspecified)
5.92
